Reported normalized growth values for a set of compounds
# assay.info: chemical genetic growth profiling, strain panel (AID 1159580);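 further: tested at 20 µM; growth read once vehicle control cultures reached saturation at 30 °C; 1 = growth at the plate median or of vehicle wells; lower values mean less growth of the strain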
# applied.conditions: S. cerevisiae deletion strains, growth OD, locus YBR160W, strain CDC28, stronger effect = lower value
Out of some 5,500 compounds screened, about 2,000 (36%) were called active. About 18% were inconclusive and are not listed. Some of the results follow.
No unit in the answer, only the number.

INSERT INTO results (compound, endpoint_result) VALUES
  ('O=C(NCCNc1ncc(Cl)cc1C(F)(F)F)C(F)(F)Sc1ccccc1', 0.979),
  ('O=C(c1ccc(Cl)cc1)N(Cc1ccccc1)Cc1cccnc1', 0.986),
  ('Cc1ccc(S(=O)(=O)n2c(Sc3ccc([N+](=O)[O-])cc3[N+](=O)[O-])nc3cc(C)ccc32)cc1', 0.986),
  ('O=C(NCCNc1ncc(C(F)(F)F)cc1Cl)C(F)(F)Sc1ccccc1', 0.984),
  ('COc1ccc2nc3ccccc3c(N)c2c1', 0.661);

Measured normalized growth of Cc1nc(-c2ccccn2)nc(SCc2ccccc2)c1Cl : 0.954

Measured normalized growth of S=C(Nc1ccc(Cl)cc1)SCc1c(Cl)cccc1Cl : 0.987

----------
# assay.info: chemical genetic growth profiling, strain panel (AID 1159580);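 further: tested at 20 µM; growth read once vehicle control cultures reached saturation at 30 °C; 1 = growth at the plate median or of vehicle wells; lower values mean less growth of the strain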
# applied.conditions: S. cerevisiae deletion strains, growth OD, locus YEL061C, strain CIN8 (second series), stronger effect = lower value
About 2,000 (36%) of roughly 5,500 compounds were called active. Another 18% or so got no clear call; they are omitted. Some of the results follow.
property: normalized growth
No unit in the answer, only the number.

Example cases with answers are listed next.
INSERT INTO assay_data (compound, property, endpoint_result) VALUES
  ('N=C(N)SCCN', 'normalized growth', 1),
  ('OC(CCN1CCCC1)(c1ccccc1)C1CCCCC1 (stereo unspecified)', 'normalized growth', 0.986),
  ('Cc1ccc(-c2cc(C(F)(F)F)nn2-c2ccc(S(N)(=O)=O)cc2)cc1', 'normalized growth', 1.04),
  ('OC(CCN1CCCCC1)(c1ccccc1)C1CCCCC1 (stereo unspecified)', 'normalized growth', 0.974),
  ('CC1OC(=O)C(C(C)C)NC(=O)C(C(C)C)OC(=O)C(C(C)C)NC(=O)C(C)OC(=O)C(C(C)C)NC(=O)C(C(C)C)OC(=O)C(C(C)C)NC(=O)C(C)OC(=O)C(C(C)C)NC(=O)C(C(C)C)OC(=O)C(C(C)C)NC1=O (stereo unspecified)', 'normalized growth', 0.448);

Measured normalized growth of C/C=C(/C)C(=O)OC1CCC2(C)C3CCC4C5(O)CC(O)C6(O)C(CN7CC(C)CCC7C6(C)O)C5(O)CC42OC13O (stereo unspecified) : 0.981

----------
# assay.info: chemical genetic growth profiling, strain panel (AID 1159580);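 further: tested at 20 µM; growth read once vehicle control cultures reached saturation at 30 °C; 1 = growth at the plate median or of vehicle wells; lower values mean less growth of the strain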
# applied.conditions: S. cerevisiae deletion strains, growth OD, locus YNL233W, strain BNI4, stronger effect = lower value
The campaign covered roughly 5,500 compounds. About 2,000 (36%) were called active. Not shown: some 18% with an inconclusive outcome. The list shows a part of the results.
property: normalized growth
No unit in the answer, only the number.

Example cases with answers are listed next.
INSERT INTO results (molecule, endpoint_result) VALUES
  ('COC(=O)/C(C)=C\CC12OC(C)(C)C3CC(C=C4C(=O)c5c(O)c6c(c(CCC(C)(C)Cl)c5OC431)OC1(C)CCC(=C(C)C)C6C1)C2=O (stereo not drawn)', 0.993),
  ('CC(C)=CCCC1(C)C=Cc2c(O)c3c(c(CC=C(C)C)c2O1)OC12C(=CCCC1C(C)(C)O[C@@]2(C/C=C(\C)C(=O)O)C(=O)O)C3=O (stereo partly drawn)', 0.823);

Measured normalized growth of CC(C)=CCCC1(C)C=Cc2c(O)c3c(c(CC=C(C)C)c2O1)OC12C(=CC4CC1C(C)(C)OC2(C/C=C(\C)C(N)=O)C4=O)C3=O (stereo not drawn) : 0.915

These entries and their values trace back to PubChem BioAssay AID1159580.
